- TEST_METHOD_NOTES: Solubility and sink factor in dissolution media at pH 2 and 6.8
- TEST_CONTEXT: pH 6.8, aqueous buffer, thermodynamic from solid, Solubility, pH 6.8 (50 mM NaH2PO4)
QUANTITY_NAME: solubility

For reference, reported solubility for CS(=O)(=O)c1ccc(Oc2cc(F)cc(C#N)c2)c2c1[C@H](O)[C@H](F)[C@@H]2F stands at 10 µg/mL
